Where do the numbers come from? From patent US10231954B2.

Assign residual kinase activity, p38a MAPK to each entry below.
# subjectOfTest: p38a MAPK (Homo sapiens)
# Sequence (Q16539 whole entry): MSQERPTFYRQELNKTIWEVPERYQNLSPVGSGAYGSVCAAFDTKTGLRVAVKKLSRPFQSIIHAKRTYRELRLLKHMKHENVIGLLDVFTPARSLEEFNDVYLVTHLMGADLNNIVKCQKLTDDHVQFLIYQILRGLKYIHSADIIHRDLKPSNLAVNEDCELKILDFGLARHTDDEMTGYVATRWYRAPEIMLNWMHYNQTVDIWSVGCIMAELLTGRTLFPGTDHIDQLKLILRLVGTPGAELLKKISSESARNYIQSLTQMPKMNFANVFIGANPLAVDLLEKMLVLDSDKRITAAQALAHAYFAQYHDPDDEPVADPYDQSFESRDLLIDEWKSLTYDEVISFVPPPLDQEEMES
# methodSummary: Kinase profiling p38a MAPK
# Type: biochemical
# conditionLabel: 100 micromolar inhibitor concentration; 100 is no change

Worked examples, 3 compounds total:
INSERT INTO assay_data (compound, measuredvalue) VALUES
  ('O=C(Nc1nc2cc(O)ccc2s1)c1ccncc1', 106),
  ('CC(=O)NC(C)C(=O)Nc1nc2ccc(C(F)(F)F)cc2s1 (stereo not shown)', 79),
  ('O=C(Nc1nc2ccc(O)cc2s1)c1ccncc1', 99);

Provide residual kinase activity, p38a MAPK values for the following items, in order.
1. COC(=O)c1cccc(C(=O)Nc2nc3cc(OC)ccc3s2)c1
2. CC(=O)Nc1nc2ccccc2s1
3. O=C(Nc1nc2ccc(O)cc2s1)c1cccnc1
4. COc1ccc2nc(NC(=O)c3ccccc3)sc2c1

[94, 91, 108, 86]
